# Assay Target: DAPK1 (human)
# Assay: radiometric filter-binding kinase assay, Kinase HotSpot
# Conditions Used: compound 0.5 µM; ATP 10 µM
Reported values of residual activity for individual entries
Enter the number, and then the unit.

Some solved entries appear below for comparison.
                         chemical_structure  result
0  CO[C@@H]1[C@H](N(C)C(=O)c2ccccc2)C[C@H]2O[C@]1(C)n1c3ccccc3c3c4c(c5c6ccccc6n2c5c31)C(=O)NC4     84%
1               O=C1c2ccccc2-c2nc3nnnn3nc21   92.2%
2     COc1ccc2c(c1)/C(=C/c1cnc[nH]1)C(O)=N2    105%
3    COc1ccc(Cl)cc1NC(=O)Nc1cc(C)nc2ccccc12   93.3%
4  CN(C)CCCn1cc(C2=C(c3c[nH]c4ccccc34)C(=O)NC2=O)c2ccccc21   87.9%

GET /value?item= N#C/C(=C\c1ccc(O)c(O)c1)C(=O)NCc1ccccc1 &field=residual activity returns 99.7%

GET /value?item= COc1ccc(C(=O)Nc2sc3c(c2C(N)=O)CCCC3)cc1OC &field=residual activity returns 78.2%

GET /value?item= Ic1cccc(CSc2nnc(-c3ccncc3)o2)c1 &field=residual activity returns 90.3%

====

# Assay Target: CDK2 CCNE1 (human) (UniProt P24941+P24864)
# Sequence (P24864 whole entry, looked up, other chains not shown): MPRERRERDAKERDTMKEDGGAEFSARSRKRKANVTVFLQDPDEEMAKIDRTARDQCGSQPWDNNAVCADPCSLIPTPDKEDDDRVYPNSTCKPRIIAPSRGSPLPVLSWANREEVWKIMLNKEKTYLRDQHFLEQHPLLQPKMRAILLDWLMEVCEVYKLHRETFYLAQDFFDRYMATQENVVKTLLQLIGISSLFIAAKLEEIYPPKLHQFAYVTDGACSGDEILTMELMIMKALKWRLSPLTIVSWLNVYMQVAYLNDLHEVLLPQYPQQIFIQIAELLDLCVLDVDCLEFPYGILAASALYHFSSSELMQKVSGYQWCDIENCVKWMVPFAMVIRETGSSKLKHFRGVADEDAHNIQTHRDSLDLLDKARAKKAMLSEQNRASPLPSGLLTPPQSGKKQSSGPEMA
# Assay: radiometric filter-binding kinase assay, Kinase HotSpot
# Conditions Used: compound 0.5 µM; ATP 10 µM
Reported values of residual activity for individual entries
Field format: number, assumed %, no unit text.

In [3]: df
Out[3]:
                         chemical_structure  measure_unit  numeric_value
0  C[C@@H]1CCN(C(=O)CC#N)C[C@@H]1N(C)c1ncnc2[nH]ccc12             %           90.7

GET /value?item= c1ccc2c(-c3ccncc3)c[nH]c2c1 &field=residual activity returns 91.7

GET /value?item= NCCNc1ncc(C(N)=O)c(Nc2cccc(C(F)(F)F)c2)n1 &field=residual activity returns 89

GET /value?item= COc1cc2ncnc(Nc3ccc(Oc4ccccc4)cc3)c2cc1OC &field=residual activity returns 87.8

GET /value?item= Cc1cncc2cccc(S(=O)(=O)N3CCCN(C(=O)CN)C[C@H]3C)c12 &field=residual activity returns 92.3

GET /value?item= Fc1ccc(-c2nc3n(c2-c2ccncc2)CCS3)cc1 &field=residual activity returns 87.9

====

Reported values of residual activity for individual entries
# Assay Target: LIMK1 (human) (UniProt P53667)
# Sequence (P53667 whole entry, looked up): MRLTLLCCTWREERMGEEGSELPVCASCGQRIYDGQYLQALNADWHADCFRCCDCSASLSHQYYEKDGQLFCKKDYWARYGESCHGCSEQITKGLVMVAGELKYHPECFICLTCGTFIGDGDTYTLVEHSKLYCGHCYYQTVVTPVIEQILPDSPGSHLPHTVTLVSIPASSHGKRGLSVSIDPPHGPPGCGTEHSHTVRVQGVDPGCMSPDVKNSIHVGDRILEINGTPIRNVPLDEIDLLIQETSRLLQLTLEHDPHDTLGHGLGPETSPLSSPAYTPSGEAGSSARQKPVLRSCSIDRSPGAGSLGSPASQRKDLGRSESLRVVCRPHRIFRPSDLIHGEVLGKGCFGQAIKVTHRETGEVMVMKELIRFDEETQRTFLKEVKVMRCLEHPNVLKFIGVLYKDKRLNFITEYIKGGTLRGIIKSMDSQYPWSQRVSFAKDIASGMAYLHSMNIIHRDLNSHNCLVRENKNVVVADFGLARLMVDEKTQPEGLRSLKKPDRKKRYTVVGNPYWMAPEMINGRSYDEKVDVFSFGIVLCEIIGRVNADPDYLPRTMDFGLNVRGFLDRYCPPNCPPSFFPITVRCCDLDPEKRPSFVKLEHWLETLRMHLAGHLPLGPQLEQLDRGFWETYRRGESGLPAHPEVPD
# Assay: radiometric filter-binding kinase assay, Kinase HotSpot
# Conditions Used: compound 0.5 µM; ATP 10 µM
Field format: number, assumed %, no unit text.

Some solved entries appear below for comparison.
>>> print(df.to_string())
                         chemical_structure                    assay_target          parameter  numeric_value
0  COc1cc2ncnc(Nc3ccc(OCc4ccccc4)cc3)c2cc1OC  LIMK1 (human) (UniProt P53667)  residual activity           95.4
1      CN(C)c1ccc(/C=C2\C(=O)Nc3ccccc32)cc1  LIMK1 (human) (UniProt P53667)  residual activity           97.7
2        CC(C)(C)c1cc(C=C(C#N)C#N)cc(Br)c1O  LIMK1 (human) (UniProt P53667)  residual activity           98.5
3               O=C1c2ccccc2-c2nc3nnnn3nc21  LIMK1 (human) (UniProt P53667)  residual activity             65
4    COc1ccc(Cl)cc1NC(=O)Nc1cc(C)nc2ccccc12  LIMK1 (human) (UniProt P53667)  residual activity           87.1

GET /value?item= Cc1cccc(-c2nc(C(C)(C)C)[nH]c2-c2ccc3c(c2)OCO3)n1 &field=residual activity returns 86.2
